- TARGET ENTITY: T1, Soluble IGF-1R (sIGF-1R), R&D Systems Cat. # 391-GR/CF (UniProt P08069 31-935, limits assumed)
- T1 construct: extracellular domain
- PROTOCOL NOTES: phage ELISA
Would you please tag the item 1 when its IGF-1R/IR comparison is 4 or above, and -1 when it is below?

input: Item APDPSDFQEIFYDWFVRQVSRMPGGG [H2CA-1-A3-IGFR] with IGF-1R/IR comparison of 4 or above?
output: 1

input: Let us now turn to GGTKAVAKVGTRDDPFYHKLSELLQGS [B6Hα-4-G8-IR]
output: -1

input: Also need DRAFYNGLRDLVGAVYGAWD [R20α-4-20C11-IR] , thanks.
output: 1

input: Please do the same for ASSASGFYELLQRLAGLGLEV [20E2B-3-C4-IGFR] as well.
output: 1

input: Then what about the binder ICTGQGFYQVLCGLLRGTSAR [20E2B-2-B3-IGFR] ?
output: 1

input: One more binder: RAGSSDFHEDFYEWFVRQVSLSLKGK [H2CA-2-B9-IGFR]
output: 1
